# Measurement Target: Melanocortin receptor 3 (Homo sapiens)
# Sequence (P41968 whole entry): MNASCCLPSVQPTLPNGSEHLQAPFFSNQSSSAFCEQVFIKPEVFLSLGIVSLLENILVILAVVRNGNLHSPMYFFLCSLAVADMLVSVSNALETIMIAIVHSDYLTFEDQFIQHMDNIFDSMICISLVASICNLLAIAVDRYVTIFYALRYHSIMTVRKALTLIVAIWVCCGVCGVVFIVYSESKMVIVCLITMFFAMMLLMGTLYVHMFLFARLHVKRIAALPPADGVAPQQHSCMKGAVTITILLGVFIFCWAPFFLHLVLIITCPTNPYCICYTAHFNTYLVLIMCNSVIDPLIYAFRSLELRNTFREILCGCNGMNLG
# Measurement Notes: Effective concentration against human melanocortin receptor-3 expressed in 293 HEK cells
Could you please report measured pEC50 for the items listed next?
Keep it numeric: pEC50 is minus log10 of the concentration in mol/L.

State the recorded pEC50 for this entry: `CCCCN(CC(=O)NCC(=O)N[C@@H](CCCCN)C(=O)N[C@H](Cc1ccccc1)C(=O)N(CCCN=C(N)N)CC(=O)N[C@@H](Cc1c[nH]c2ccccc12)C(=O)NCC(N)=O)C(C)=O`
5.30

Another compound to look at: `CCCCN(CC(=O)NCC(=O)N(CCCCN)CC(=O)N[C@H](Cc1ccccc1)C(=O)N(CCCN=C(N)N)CC(=O)N(CCc1c[nH]c2ccccc12)CC(=O)NCC(N)=O)C(C)=O`
5.20

Another compound to look at: `CCCCN(CC(=O)NCC(=O)N(CCCCN)CC(=O)N[C@H](Cc1ccccc1)C(=O)N[C@@H](CCCNC(=N)N)C(=O)N[C@@H](Cc1c[nH]c2ccccc12)C(=O)NCC(N)=O)C(C)=O`
5.70

====

# Measurement Target: Melanocortin receptor 4 (Homo sapiens, UniProt P32245)
# Sequence (P32245 whole entry): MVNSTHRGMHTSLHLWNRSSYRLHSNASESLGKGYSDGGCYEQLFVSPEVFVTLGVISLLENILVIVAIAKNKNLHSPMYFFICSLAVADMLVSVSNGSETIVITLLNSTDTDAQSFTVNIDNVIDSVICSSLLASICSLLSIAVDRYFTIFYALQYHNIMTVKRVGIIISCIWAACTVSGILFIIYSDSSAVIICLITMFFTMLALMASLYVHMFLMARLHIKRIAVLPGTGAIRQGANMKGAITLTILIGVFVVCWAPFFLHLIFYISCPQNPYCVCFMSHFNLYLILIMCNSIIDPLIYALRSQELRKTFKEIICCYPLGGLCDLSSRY
# Measurement Notes: Effective concentration against human melanocortin receptor-4 expressed in 293 HEK cells
Where a SMILES comes first, the peptide text is derived from it. [ ]: non-standard residue; d: D form. Nle = CCCC[C@H](N)C(=O)O; Nphe = O=C(O)CNCc1ccccc1; Nlys = NCCCCNCC(=O)O
Parameter: EC50 (µM)
Quick reminder: number only, in µM, skip the unit.

State the recorded EC50 for this entry: `CCCC[C@H](NC(C)=O)C(=O)NCC(=O)N(CCCCN)CC(=O)N[C@H](Cc1ccccc1)C(=O)N[C@@H](CCCN=C(N)N)C(=O)N(CC(=O)NCC(N)=O)Cc1c[nH]c2ccccc12`
1.26

Another compound to look at: CCCC[C@H](NC(C)=O)C(=O)NCC(=O)N(CCCCN)CC(=O)N(CC(=O)N[C@@H](CCCN=C(N)N)C(=O)N[C@@H](Cc1c[nH]c2ccccc12)C(=O)NCC(N)=O)Cc1ccccc1 (Ac-[Nle]G[Nlys][Nphe]RWG-NH2)
2

Another compound to look at: `CCCCN(CC(=O)NCC(=O)N[C@@H](CCCCN)C(=O)N[C@H](Cc1ccccc1)C(=O)N[C@@H](CCCNC(=N)N)C(=O)N(CCc1c[nH]c2ccccc12)CC(=O)NCC(N)=O)C(C)=O`
0.316

Another compound to look at: `CCCC[C@H](NC(C)=O)C(=O)NCC(=O)N[C@@H](CCCCN)C(=O)N[C@H](Cc1ccccc1)C(=O)N[C@@H](CCCN=C(N)N)C(=O)N(CCc1c[nH]c2ccccc12)CC(=O)NCC(N)=O`
0.316

Another compound to look at: `CCCC[C@H](NC(C)=O)C(=O)NCC(=O)N[C@@H](CCCCN)C(=O)N[C@H](Cc1ccccc1)C(=O)N(CCCNC(=N)N)CC(=O)N[C@@H](Cc1c[nH]c2ccccc12)C(=O)NCC(N)=O`
0.631

====

# Measurement Target: Melanocortin receptor 4 (Homo sapiens)
# Measurement Notes: Effective concentration against human melanocortin receptor-4 expressed in 293 HEK cells
pEC50: −log10 of the molar value.
Would you please tag the item condition met when its pEC50 is 6 or above, and condition not met when it is below?

Item `CCCCN(CC(=O)NCC(=O)N(CCCCN)CC(=O)N[C@H](Cc1ccccc1)C(=O)N[C@@H](CCCNC(=N)N)C(=O)N(CC(=O)NCC(N)=O)Cc1c[nH]c2ccccc12)C(C)=O` with pEC50 of 6 or above?
condition not met

Another compound to look at: CCCC[C@H](NC(C)=O)C(=O)NCC(=O)N(CCCCN)CC(=O)NC(Cc1ccccc1)C(=O)N(CCCNC(=N)N)CC(=O)N(CC(=O)NCC(N)=O)Cc1c[nH]c2ccccc12 (single isomer, unassigned)
condition not met

Another compound to look at: `CCCC[C@H](NC(C)=O)C(=O)NCC(=O)N[C@@H](CCCCN)C(=O)N[C@H](Cc1ccccc1)C(=O)N(CCCCNC(=N)N)CC(=O)N(CCc1c[nH]c2ccccc12)CC(=O)NCC(N)=O`
condition met

Another compound to look at: `CCCCN(CC(=O)NCC(=O)N[C@@H](CCCCN)C(=O)N[C@H](Cc1ccccc1)C(=O)N(CCCN=C(N)N)CC(=O)N(CC(=O)NCC(N)=O)Cc1c[nH]c2ccccc12)C(C)=O`
condition met

====

# Measurement Target: Melanocortin receptor 5 (Mus musculus, UniProt P41149)
# Sequence (P41149 whole entry): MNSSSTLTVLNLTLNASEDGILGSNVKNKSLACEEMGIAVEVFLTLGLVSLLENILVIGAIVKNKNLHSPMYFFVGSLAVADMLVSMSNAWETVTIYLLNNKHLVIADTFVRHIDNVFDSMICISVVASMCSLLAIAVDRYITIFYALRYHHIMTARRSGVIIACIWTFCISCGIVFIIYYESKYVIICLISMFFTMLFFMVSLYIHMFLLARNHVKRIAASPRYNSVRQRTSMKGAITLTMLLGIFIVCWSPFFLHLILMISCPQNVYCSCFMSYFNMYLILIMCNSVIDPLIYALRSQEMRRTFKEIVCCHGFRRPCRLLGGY
# Measurement Notes: Displacement of [125I]NDP-MSH from mouse melanocortin receptor-5 expressed in 293 HEK cells
Could you please report measured IC50 for the items listed next?
Quick reminder: number only, in nM, skip the unit.

State the recorded IC50 for this entry: `CCCCN(CC(=O)NCC(=O)N[C@@H](CCCCN)C(=O)N[C@H](Cc1ccccc1)C(=O)N(CCCN=C(N)N)CC(=O)N(CCc1c[nH]c2ccccc12)CC(=O)NCC(N)=O)C(C)=O`
1260

Another molecule to look at: `CCCC[C@H](NC(C)=O)C(=O)NCC(=O)N[C@@H](CCCCN)C(=O)N[C@H](Cc1ccccc1)C(=O)N(CCCNC(=N)N)CC(=O)N[C@@H](Cc1c[nH]c2ccccc12)C(=O)NCC(N)=O`
3160

Another molecule to look at: `CCCCN(CC(=O)NCC(=O)N(CCCCN)CC(=O)N[C@H](Cc1ccccc1)C(=O)N[C@@H](CCCNC(=N)N)C(=O)N(CC(=O)NCC(N)=O)Cc1c[nH]c2ccccc12)C(C)=O`
2000

Another molecule to look at: `CCCCN(CC(=O)NCC(=O)N(CCCCN)CC(=O)N[C@H](Cc1ccccc1)C(=O)N[C@@H](CCCN=C(N)N)C(=O)N(CCc1c[nH]c2ccccc12)CC(=O)NCC(N)=O)C(C)=O`
6310

Another molecule to look at: `CCCC[C@H](NC(C)=O)C(=O)NCC(=O)N[C@@H](CCCCN)C(=O)N[C@H](Cc1ccccc1)C(=O)N[C@@H](CCCN=C(N)N)C(=O)N(CCc1c[nH]c2ccccc12)CC(=O)NCC(N)=O`
10000

Another molecule to look at: `CCCCN(CC(=O)NCC(=O)N[C@@H](CCCCN)C(=O)N[C@H](Cc1ccccc1)C(=O)N[C@@H](CCCNC(=N)N)C(=O)N(CC(=O)NCC(N)=O)Cc1c[nH]c2ccccc12)C(C)=O`
1580

Another molecule to look at: `CCCC[C@H](NC(C)=O)C(=O)NCC(=O)N[C@@H](CCCCN)C(=O)N[C@H](Cc1ccccc1)C(=O)N(CCCNC(=N)N)CC(=O)N(CC(=O)NCC(N)=O)Cc1c[nH]c2ccccc12`
2000

Another molecule to look at: `CCCC[C@H](NC(C)=O)C(=O)NCC(=O)N[C@@H](CCCCN)C(=O)N[C@H](Cc1ccccc1)C(=O)N(CCCCNC(=N)N)CC(=O)N(CCc1c[nH]c2ccccc12)CC(=O)NCC(N)=O`
501

Another molecule to look at: `CCCC[C@H](NC(C)=O)C(=O)NCC(=O)N[C@@H](CCCCN)C(=O)N[C@H](Cc1ccccc1)C(=O)N(CCCCN=C(N)N)CC(=O)N[C@@H](Cc1c[nH]c2ccccc12)C(=O)NCC(N)=O`
2000

Another molecule to look at: `CCCCN(CC(=O)NCC(=O)N(CCCCN)CC(=O)N[C@H](Cc1ccccc1)C(=O)N[C@@H](CCCNC(=N)N)C(=O)N[C@@H](Cc1c[nH]c2ccccc12)C(=O)NCC(N)=O)C(C)=O`
794

====

# Measurement Target: Melanocortin receptor 5 (Mus musculus, UniProt P41149)
# Measurement Notes: Effective concentration against mouse melanocortin receptor-5 expressed in 293 HEK cells
pEC50: −log10 of the molar value. Where a SMILES comes first, the peptide text is derived from it. [ ]: non-standard residue; d: D form. Gly(N(CH2)2(3-indolyl)) = O=C(O)CNCCc1c[nH]c2ccccc12; Gly(N-(CH2)3-guanidino) = N=C(N)NCCCNCC(=O)O; Nle = CCCC[C@H](N)C(=O)O; Nphe = O=C(O)CNCc1ccccc1; NBuGly = CCCCNCC(=O)O; Nlys = NCCCCNCC(=O)O
Would you please tag the item Criterion met when its pEC50 is 6 or above, and Criterion not met when it is below?

Item CCCC[C@H](NC(C)=O)C(=O)NCC(=O)N[C@@H](CCCCN)C(=O)N(CC(=O)N(CCCN=C(N)N)CC(=O)N(CCc1c[nH]c2ccccc12)CC(=O)NCC(N)=O)Cc1ccccc1 (Ac-[Nle]GK[Nphe][Gly(N-(CH2)3-guanidino)][Gly(N(CH2)2(3-indolyl))]G-NH2) with pEC50 of 6 or above?
Criterion not met

Another compound to look at: `CCCCN(CC(=O)NCC(=O)N[C@@H](CCCCN)C(=O)N[C@H](Cc1ccccc1)C(=O)N(CCCN=C(N)N)CC(=O)N(CCc1c[nH]c2ccccc12)CC(=O)NCC(N)=O)C(C)=O`
Criterion met

Another compound to look at: `CCCC[C@H](NC(C)=O)C(=O)NCC(=O)N[C@@H](CCCCN)C(=O)N[C@H](Cc1ccccc1)C(=O)N(CCCCNC(=N)N)CC(=O)N(CCc1c[nH]c2ccccc12)CC(=O)NCC(N)=O`
Criterion met

Another compound to look at: CCCCN(CC(=O)NCC(=O)N(CCCCN)CC(=O)N[C@@H](Cc1ccccc1)C(=O)N(CCCN=C(N)N)CC(=O)N[C@@H](Cc1c[nH]c2ccccc12)C(=O)NCC(N)=O)C(C)=O (Ac-[NBuGly]G[Nlys]F[Gly(N-(CH2)3-guanidino)]WG-NH2)
Criterion not met

Another compound to look at: `CCCC[C@H](NC(C)=O)C(=O)NCC(=O)N(CCCCN)CC(=O)N[C@H](Cc1ccccc1)C(=O)N[C@@H](CCCN=C(N)N)C(=O)N(CC(=O)NCC(N)=O)Cc1c[nH]c2ccccc12`
Criterion not met

Another compound to look at: CCCC[C@H](NC(C)=O)C(=O)NCC(=O)N(CCCCN)CC(=O)NC(Cc1ccccc1)C(=O)N(CCCNC(=N)N)CC(=O)N(CC(=O)NCC(N)=O)Cc1c[nH]c2ccccc12 (single isomer, unassigned)
Criterion not met

Another compound to look at: `CCCC[C@H](NC(C)=O)C(=O)NCC(=O)N[C@@H](CCCCN)C(=O)N[C@H](Cc1ccccc1)C(=O)N[C@@H](CCCN=C(N)N)C(=O)N(CC(=O)NCC(N)=O)Cc1c[nH]c2ccccc12`
Criterion met

Another compound to look at: `CCCC[C@H](NC(C)=O)C(=O)NCC(=O)N[C@@H](CCCCN)C(=O)N[C@H](Cc1ccccc1)C(=O)N[C@@H](CCCN=C(N)N)C(=O)N(CCc1c[nH]c2ccccc12)CC(=O)NCC(N)=O`
Criterion not met

Another compound to look at: `CCCCN(CC(=O)NCC(=O)N(CCCCN)CC(=O)N[C@H](Cc1ccccc1)C(=O)N[C@@H](CCCNC(=N)N)C(=O)N[C@@H](Cc1c[nH]c2ccccc12)C(=O)NCC(N)=O)C(C)=O`
Criterion not met
